experiment: Plasma pharmacokinetics, part A; assay type: in vivo, human; details: human, in vivo, po, 120 mg
PARAMETER MEASURED: AUC(0-inf) (ng·h/mL)

INSERT INTO assay_data (chem_smiles, val) VALUES
  ('C=CC(=O)N1CCC[C@@H](n2c(=O)n(-c3ccc(Oc4ccccc4)cc3)c3c(N)nccc32)C1', 62.6);

* * *

assay: Plasma pharmacokinetics, part B; details: human, in vivo, 30 mg, t 1/2, MAD 30 mg q.d., Day 1, mean, n = 8
PARAMETER MEASURED: half-life (h)

INSERT INTO assay_data (chem_smiles, val) VALUES
  ('C=CC(=O)N1CCC[C@@H](n2c(=O)n(-c3ccc(Oc4ccccc4)cc3)c3c(N)nccc32)C1', 1.6);

* * *

assay: Plasma pharmacokinetics, part B; settings: human, in vivo, 90 mg, Tmax, MAD 90 mg q.d., Day 10, median (min – max), n = 8
PARAMETER MEASURED: Tmax

INSERT INTO assay_data (chem_smiles, val) VALUES
  ('C=CC(=O)N1CCC[C@@H](n2c(=O)n(-c3ccc(Oc4ccccc4)cc3)c3c(N)nccc32)C1', '1.5 h');

* * *

assay: Plasma pharmacokinetics, part A; type: in vivo, human; details: human, in vivo, po, 15 mg
PARAMETER MEASURED: Tmax (h)

INSERT INTO results (chem_smiles, val) VALUES
  ('C=CC(=O)N1CCC[C@@H](n2c(=O)n(-c3ccc(Oc4ccccc4)cc3)c3c(N)nccc32)C1', 1);

* * *

experiment: Plasma pharmacokinetics, part B; settings: human, in vivo, 90 mg, t 1/2, MAD 90 mg q.d., Day 1, mean, n = 8
PARAMETER MEASURED: half-life (h)

INSERT INTO measurements (chem_smiles, val) VALUES
  ('C=CC(=O)N1CCC[C@@H](n2c(=O)n(-c3ccc(Oc4ccccc4)cc3)c3c(N)nccc32)C1', 2.1);

* * *

experiment: Plasma pharmacokinetics, part B; conditions: human, in vivo, 15 mg, Cmax, MAD 15 mg q.d., Day 1, mean, n = 8
PARAMETER MEASURED: Cmax (ng/mL)

INSERT INTO measurements (chem_smiles, unit_symbol, val) VALUES
  ('C=CC(=O)N1CCC[C@@H](n2c(=O)n(-c3ccc(Oc4ccccc4)cc3)c3c(N)nccc32)C1', 'ng/mL', 1.96);

* * *

test: Plasma pharmacokinetics, part B; conditions: human, in vivo, 60 mg, Tmax, MAD 60 mg q.d., Day 1, median (min – max), n = 8
PARAMETER MEASURED: Tmax (h)

INSERT INTO results (chem_smiles, unit_symbol, val) VALUES
  ('C=CC(=O)N1CCC[C@@H](n2c(=O)n(-c3ccc(Oc4ccccc4)cc3)c3c(N)nccc32)C1', 'h', 1.25);

* * *

assay: Plasma pharmacokinetics, part A; assay type: in vivo, human; settings: human, in vivo, po, 15 mg, t 1/2, SAD, single oral 15 mg, fasting, mean, n = 6
PARAMETER MEASURED: half-life

INSERT INTO results (chem_smiles, val) VALUES
  ('C=CC(=O)N1CCC[C@@H](n2c(=O)n(-c3ccc(Oc4ccccc4)cc3)c3c(N)nccc32)C1', '1.39 h');
